As shown below, each of these molecules has a reported IC50 value.
# target: AVP-V1 sites (Rattus norvegicus, UniProt P30560)
# Sequence (P30560 whole entry): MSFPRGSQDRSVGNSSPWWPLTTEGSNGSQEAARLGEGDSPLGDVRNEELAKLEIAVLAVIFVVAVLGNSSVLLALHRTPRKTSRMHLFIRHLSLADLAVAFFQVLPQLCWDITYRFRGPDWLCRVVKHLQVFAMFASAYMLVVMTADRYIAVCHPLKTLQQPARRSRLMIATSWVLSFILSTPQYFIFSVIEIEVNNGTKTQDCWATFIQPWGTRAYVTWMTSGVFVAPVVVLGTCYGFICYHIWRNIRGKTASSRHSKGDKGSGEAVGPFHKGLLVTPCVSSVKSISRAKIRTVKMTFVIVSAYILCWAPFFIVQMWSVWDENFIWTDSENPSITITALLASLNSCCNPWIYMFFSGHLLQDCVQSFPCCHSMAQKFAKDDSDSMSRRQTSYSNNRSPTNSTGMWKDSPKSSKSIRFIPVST
# protocol text: [3H]AVP radioligand binding to male rat liver crude membrane preparation (AVP-V1 sites)
# conditions: male rat liver membranes; 1 nM [3H]AVP; 30 min at 30° C.; read-out: Receptor Binding Results IC50 (nM) [^3 H]-AVP-V1
*1 amine or outer side, *2 acyl side, *3 side chain or, on linkers, in order; H or OH if unused. Where a SMILES comes first, the peptide text is derived from it. [ ]: non-standard residue; d: D form. X2 = O=C([C@@H]1[C@@H](O)[C@@H](O)C=NN1[*:1])[*:2]; X8 = O=C([C@@H]1CC(N2CCCC2)C=NN1[*:1])[*:2]; X10 = O=C1CC[C@@H](C(=O)[*:2])N([*:1])N1; dPiz(1,6-dehydro) = O=C(O)[C@H]1CCC=NN1; X1 = O=C([C@H]1CCCNN1[*:1])[*:2]; dNMeF = CN[C@H](Cc1ccccc1)C(=O)O
The response must be a number in nM with no trailing unit.

These solved cases illustrate the format of a correct answer.
molecule	unit tag	meas value
CC[C@H](C)[C@@H]1NC(=O)[C@@H](Cc2ccccc2)NC(=O)[C@@H]2CCCN2C(=O)[C@@H](Cc2ccccc2)N(C)C(=O)[C@@H]2CC(N3CCCC3)C=NN2C(=O)[C@H]2CCC=NN2C1=O (stereo partly shown) [Example 15] (cyclo(I[dPiz(1,6-dehydro)][X8][dNMeF]P[dF]))	nM	8800
CC[C@H](C)[C@@H]1NC(=O)[C@@H](Cc2ccccc2)NC(=O)[C@@H]2CCCN2C(=O)[C@@H](Cc2ccccc2)N(C)C(=O)[C@@H]2CCC(=O)NN2C(=O)[C@H]2CCC=NN2C1=O [Example 3] (cyclo(I[dPiz(1,6-dehydro)][X10][dNMeF]P[dF]))	nM	4700

// next entry
In: State the recorded IC50 for this entry: CC[C@H](C)[C@@H]1NC(=O)[C@@H](Cc2ccccc2)NC(=O)[C@@H]2CCCN2C(=O)[C@@H](Cc2ccccc2)N(C)C(=O)[C@@H]2[C@@H](O)[C@@H](O)C=NN2C(=O)[C@H]2CCCNN2C1=O [Example 14] (cyclo(I[X1][X2][dNMeF]P[dF]))
Out: 10000
